Test: Visual cytotoxicity scoring in HFF cells
Type: cell-based
Conditions: human, Table 1, at time of HCMV plaque enumeration, read-out: 50% Inhibitory Concentration Cytotoxicity HFF (visual)
Assay Endpoint: CC50

Reference set, count: 5
Nc1nc(O)c2ncn(COC(CO)CO)c2n1 [Ganciclovir (DHPG), reference compound]
> 100 µM
Nc1nc2c(ncn2COCCO)c(=O)[nH]1 [Acyclovir, reference compound]
> 100 µM
OCC(CO)OCn1cc(Br)c2c(NO)ncnc21
> 100 µM
OCC(CO)OCn1cc(Cl)c2c(NO)ncnc21
> 100 µM
Nc1ncnc2c1c(I)cn2COC(CO)CO
> 100 µM

Please look up its CC50: `Nc1ncnc2c1c(Cl)cn2COC(CO)CO`
> 100 µM

Now this one: `OCC(CO)OCn1cc(I)c2c(NO)ncnc21`
> 100 µM

Now this one: `Nc1ncnc2c1c(I)cn2COCCO`
100 µM

Now this one: `Nc1ncnc2c1c(Br)cn2COC(CO)CO`
> 100 µM

Now this one: `Nc1ncnc2c1c(Br)cn2COCCO`
100 µM

Now this one: `NC(=S)c1cn(COCCO)c2ncnc(N)c12`
100 µM

Now this one: `Nc1ncnc2c1c(Cl)cn2COCCO`
> 100 µM

Now this one: `NC(=S)c1cn(COC(CO)CO)c2ncnc(N)c12`
> 100 µM
